Target: D(3) dopamine receptor (Homo sapiens) (UniProt P35462)
Sequence (P35462 whole entry, looked up): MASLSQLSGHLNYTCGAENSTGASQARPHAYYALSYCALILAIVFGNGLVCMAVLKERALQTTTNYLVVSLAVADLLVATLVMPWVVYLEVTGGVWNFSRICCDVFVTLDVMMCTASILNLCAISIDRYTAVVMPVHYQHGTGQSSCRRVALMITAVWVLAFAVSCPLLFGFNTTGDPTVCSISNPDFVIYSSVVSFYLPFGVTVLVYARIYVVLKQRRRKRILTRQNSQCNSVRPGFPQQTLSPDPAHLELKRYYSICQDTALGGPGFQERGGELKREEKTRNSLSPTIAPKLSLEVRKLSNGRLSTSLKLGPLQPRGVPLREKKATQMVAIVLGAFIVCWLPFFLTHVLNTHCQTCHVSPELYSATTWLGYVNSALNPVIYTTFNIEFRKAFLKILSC
Assay: qHTS of D3 Dopamine Receptor Antagonist: qHTS; also: % is scaled to controls: 0 for no effect and ±100 for the full control effect
Conditions: D3R cells, DiscoveRx beta-arrestin luminescence, antagonist mode; hits give low values
In all, about 360,000 compounds went through this assay and about 9,100 (2.5%) were called active. About 4% were inconclusive and are not listed. The full list was thinned out, with actives kept by preference.
ATTRIBUTE MEASURED: max response, negative = inhibition (%)

molecule=CCc1nnc(NC(=O)c2cc(S(=O)(=O)N3CCCCC3)ccc2C)s1 study_target="D(3) dopamine receptor (Homo sapiens) (UniProt P35462)" measurement_unit=% value=-2.53
molecule=Cc1ccc(Sc2cc(C(=O)c3ccccc3C(=O)O)ccc2[N+](=O)[O-])cc1 study_target="D(3) dopamine receptor (Homo sapiens) (UniProt P35462)" measurement_unit=% value=-21.4
molecule=CCOC(=O)c1sc(NC(=O)c2cc(S(=O)(=O)N3CCOCC3)ccc2C)nc1C study_target="D(3) dopamine receptor (Homo sapiens) (UniProt P35462)" measurement_unit=% value=-55.1
molecule="Cc1cccc(CN2CCN(C3CN(Cc4cn(Cc5ccccc5F)nn4)S(=O)(=O)C3)CC2)c1 (stereo unspecified)" study_target="D(3) dopamine receptor (Homo sapiens) (UniProt P35462)" measurement_unit=% value=6.92
molecule=COc1ccccc1Cc1c(-c2ccc(Cl)cc2)nc2c3ccccc3ccn12 study_target="D(3) dopamine receptor (Homo sapiens) (UniProt P35462)" measurement_unit=% value=7.3
molecule=Cc1ccc(C(=O)NCC(=O)NC2CC2)cc1 study_target="D(3) dopamine receptor (Homo sapiens) (UniProt P35462)" measurement_unit=% value=-5.92
molecule=CC(=O)Nc1ccc(NC(=O)CCCNC(=O)c2ccc(Cl)cc2)cc1 study_target="D(3) dopamine receptor (Homo sapiens) (UniProt P35462)" measurement_unit=% value=-16.5
molecule=O=C(CNC(=O)c1ccc2ccccc2c1)Nc1ncccc1O study_target="D(3) dopamine receptor (Homo sapiens) (UniProt P35462)" measurement_unit=% value=8.18
molecule="COc1ccc(-c2cc3c(c4c2ccn4C)C2CCC3C2)cn1 (stereo unspecified)" study_target="D(3) dopamine receptor (Homo sapiens) (UniProt P35462)" measurement_unit=% value=12.4
molecule="CN1CCN(C2Cc3ccc(Cl)cc3Sc3ccc(F)cc32)CC1 (stereo unspecified)" study_target="D(3) dopamine receptor (Homo sapiens) (UniProt P35462)" measurement_unit=% value=-88
molecule="CC1CCC(NC(=O)CNC(=O)c2ccc3ccccc3c2)CC1 (stereo unspecified)" study_target="D(3) dopamine receptor (Homo sapiens) (UniProt P35462)" measurement_unit=% value=-70
